Ref: ChEMBL document CHEMBL1201862

# System: NCI/ADR-RES
# methodNotes: NCI tumour cell line growth inhibition, 48 h
Activity calls are given as the source filed them. Cut-off read from the data, not from the text of the source: active = GI50 up to about 1.1 µM and inactive = higher.
resultType: GI50

{"molecule": "CC(C)Cc1ccc(C(C)/C=C2\\CCC(CN(C)C)C2=O)cc1 (configuration not stated)", "GI50": "5.89 µM (inactive)"}
{"molecule": "CCOC(=O)c1csc(NC(=O)CCN2CCCCC2)n1", "GI50": "> 100 µM (inactive)"}
{"molecule": "CCOC(=O)C(NC(=O)NCc1ccc(F)cc1)C(F)(F)F (configuration not stated)", "GI50": "> 100 µM (inactive)"}
{"molecule": "CCOC(=O)c1ccc(C(=O)n2ccnc2)[nH]1", "GI50": "> 100 µM (inactive)"}
{"molecule": "COc1ccc2c(c1)CCCN1Cc3ccccc3CC21 (configuration not stated)", "GI50": "> 100 µM (inactive)"}

Recorded GI50 for O=C(N/N=C1\C(=O)Nc2ccc(Br)cc21)/C(O)=C/C(=O)c1ccc(Cl)cc1 , please?
> 100 µM (inactive)

Value lookup for GI50; key = COC(=O)Cc1c([C@H]2[C@H](CC(=O)OC)c3ccccc3N2C(=O)C(F)(F)F)[nH]c2ccccc12
21.5 µM (inactive)

Please report the recorded GI50 for CCCCCCc1cc2cc(C(=O)Nc3nc(C45CC6CC(CC(C6)C4)C5)cs3)c(=O)oc2cc1O .
17.3 µM (inactive)

For the molecule shown here, O/N=C1/CCCCCC1NO (configuration not stated) , give the reported GI50.
> 100 µM (inactive)

What does the record list as GI50 for CN(C)C(c1ccccc1)C1COC2Cc3ccccc3C1O2 (configuration not stated) ?
> 100 µM (inactive)

Requested read-out: GI50. Entry: CC(C)Oc1cccc(N2C(n3ccnc3)=Nc3ccncc3S2(=O)=O)c1
21 µM (inactive)

Fill blank: measured GI50 of the molecule Cc1cnc2nc(-c3ccc4ccccc4c3)cc(O)c2c1 is ____.
0.349 µM (active)

Find the recorded GI50 belonging to COc1ccc(/C=N/n2c(C)n[nH]c2=O)c(OC)c1 and report it.
> 100 µM (inactive)

Any idea what its GI50 is? The molecule is Cn1c(=O)c2c(nc3n2CC(=O)N3CCCCl)n(C)c1=O
> 100 µM (inactive)

Query: GI50; subject: NC(=O)CCC(CCC(N)=O)(CCC(N)=O)[N+](=O)[O-]
> 100 µM (inactive)

Value lookup for GI50; key = CCC1CCC2C3CC=C4CC(OC(C)=O)C(N)CC4(C)C3CCC12C (configuration not stated)
5.21 µM (inactive)

Name the reported GI50 value associated with the molecule Cc1ccc(NC(=O)/C(=N\NC(N)=O)c2c(O)c3ccccc3[nH]c2=O)cc1
> 100 µM (inactive)

* * *

# Tested on: SW-620
# methodNotes: NCI tumour cell line growth inhibition, 48 h
Calls of active or inactive are those of the source. Rule as the data show it: active = GI50 up to about 1.1 µM and inactive = higher.
Collected GI50 values appear next to each entry.

{"molecule": "C=CC[N+]12CN3CN(CN(C3)C1)C2", "GI50": "5.94 µM (inactive)"}
{"molecule": "CC(C)=CCC[C@@H](C)C1=C(Nc2ccccc2F)C(=O)C(C)=C(O)C1=O", "GI50": "5.98 µM (inactive)"}

Let's switch to this molecule now.
Fill blank: measured GI50 of the molecule CN(C)Cc1cc(/N=N/c2ccc(Cl)cc2)ccc1OC(=O)c1ccccc1 is ____.
16.9 µM (inactive)

* * *

# Tested on: MCF7
# methodNotes: NCI tumour cell line growth inhibition, 48 h
The source made the active and inactive calls. Rule as the data show it: active = GI50 up to about 1.1 µM and inactive = higher.
Pick one and only one: true (1) = active, false (0) = inactive

Take a look at these entries with their results.
{"molecule": "CCCCCCc1cc2cc(C(=O)Nc3nc(C45CC6CC(CC(C6)C4)C5)cs3)c(=O)oc2cc1O", "targetSystem": "MCF7", "className": "false (0)"}
{"molecule": "CC[C@]12C=CCN3CCC4(c5cc([C@@]6(C(=O)OC)CC7CN(CCc8c6[nH]c6ccccc86)CC6CCCCC67)c(OC)cc5N(C)C4[C@](O)(C(=O)OC)C1OC(C)=O)[C@@H]32 (stereo partly specified)", "targetSystem": "MCF7", "className": "true (1)"}

Please let me know the test result on file for CN(C)CC1CCCC1=O (stereo unspecified) .
true (1)

Outcome? COc1cc(-c2oc3c(OC)cc(OC)c(O)c3c(=O)c2OC)cc(OC)c1OC
false (0)

Hi team, can someone confirm the assay call for CN(C)Cc1cc(/N=N/c2ccc(Cl)cc2)ccc1OC(=O)c1ccccc1 ?
false (0)

What was the test verdict on CCN(CC)Cc1ccc(C(=S)Nc2ccc(C)cc2)s1 ?
false (0)

Assay outcome for COC(=O)C1=C(C)NC(C)=C(C(=O)OC)C1c1cccc(NO)c1 : what was it?
false (0)

* * *

# System: SW-620
# methodNotes: NCI tumour cell line growth inhibition, 48 h
Calls of active or inactive are those of the source. Cut-off read from the data, not from the text of the source: active = GI50 up to about 1.1 µM and inactive = higher.
Pick from 1.0 (active), 0.0 (inactive) when you respond.

Some solved entries appear below for comparison.
{"compound": "O=C1CCC2COc3ccc(O)c1c32 (stereo not given)", "className": 0.0}
{"compound": "C[C@]12CC[C@H](OC3CCCCO3)CC1=CC[C@@H]1C2CC[C@]2(C)/C(=N/OCCC#N)CCC12 (stereo not given in full)", "className": 0.0}
{"compound": "COc1ccc(OC)c2c(Nc3ccc(S(=O)(=O)O)c4cc(S(=O)(=O)O)cc(S(=O)(=O)O)c34)cc(C)nc12", "className": 0.0}
{"compound": "CS(=O)(=O)c1n[nH]c2nc(O)nc(O)c12", "className": 0.0}
{"compound": "CSc1c(C#N)c(O)n(-c2ccc(C)cc2)c(=O)c1C(C)=O", "className": 0.0}

Name the outcome recorded for O=C1C(Cl)=C(N2CCSCC2)C(=O)c2c(O)ccc(O)c21 in the assay.
1.0

Can you look up the reported call for Cc1ccc(/C=C2\NC(=S)N(CN3CCOCC3)C2=O)cc1 for me?
0.0

Record lookup: outcome of this test for CCOC(=O)N1CCC(N[C@@H]2c3cc4c(cc3[C@@H](c3cc(OC)c(O)c(OC)c3)[C@H]3C(=O)OC[C@@H]32)OCO4)CC1 ?
0.0

Which outcome did this test record for the compound Nc1ccc(C23CC4CC(C2)CC(c2ccc(N)cc2)(C4)C3)cc1 ?
0.0

Status in this test for COC[n+]1cc2cc(OC)c(OC)cc2c2ccc3cc(OC)c(OC)cc3c21 ?
0.0

* * *

# Tested on: SK-OV-3
# methodNotes: NCI tumour cell line growth inhibition, 48 h
The source made the active and inactive calls. No stated cut-off is given here; in the data, active = GI50 up to about 1.1 µM and inactive = higher.
Below is a list of entries, each paired with its recorded GI50 value.

Some solved entries appear below for comparison.
{"compound": "CC1CC(=O)Nc2cc(Cl)ccc2N1C(=O)C1CC1 (configuration not stated)", "targetSystem": "SK-OV-3", "GI50": "> 100 µM (inactive)"}
{"compound": "CCCOC1OC(CS(=O)(=O)O)C(O)C(O)C1O (configuration not stated)", "targetSystem": "SK-OV-3", "GI50": "> 100 µM (inactive)"}

Now examine the next entry.
Which GI50 value is on record for CC(C)=CCC[C@@H](C)C1=C(Nc2ccccc2F)C(=O)C(C)=C(O)C1=O ?
6.47 µM (inactive)

* * *

# Test system: M14
# methodNotes: NCI tumour cell line growth inhibition, 48 h
The source made the active and inactive calls. No stated cut-off is given here; in the data, active = GI50 up to about 1.1 µM and inactive = higher.
Here, each record is paired with measured GI50 data.

{"compound": "O=P1(O)c2ccccc2CS(=O)(=O)Cc2ccccc21", "recordedMeasurement": "> 100 µM (inactive)"}
{"compound": "CCOC(=O)N1CCC(N[C@@H]2c3cc4c(cc3[C@@H](c3cc(OC)c(O)c(OC)c3)[C@H]3C(=O)OC[C@@H]32)OCO4)CC1", "recordedMeasurement": "1.5 µM (inactive)"}
{"compound": "CCOC(=O)CC1COc2ccc3c(c21)OCO3 (stereo not given)", "recordedMeasurement": "> 100 µM (inactive)"}

Recorded GI50 for COC(=O)C(CC(=O)Nc1ccc(Cl)c(Cl)c1)C(=O)C(=O)NC1C2CC3CC(C2)CC1C3 (stereo not given) , please?
> 100 µM (inactive)

What value of GI50 has been recorded for this entry: OC1c2ccccc2C(O)C2OC12 (stereo not given)
> 100 µM (inactive)

* * *

# Test system: A549
# methodNotes: NCI tumour cell line growth inhibition, 48 h
Calls of active or inactive are those of the source. Cut-off read from the data, not from the text of the source: active = GI50 up to about 1.1 µM and inactive = higher.
The reader will find reported GI50 values listed item by item below.

{"compound": "CCOC(=O)c1ccc(C(=O)n2ccnc2)[nH]1", "targetSystem": "A549", "resultType": "GI50", "recordedMeasurement": "> 100 µM (inactive)"}
{"compound": "O=C(OCc1ccccc1)N1N=NC2C3CC(OCc4ccccc4)(OCc4ccccc4)C(O3)C21 (stereo not given)", "targetSystem": "A549", "resultType": "GI50", "recordedMeasurement": "17.3 µM (inactive)"}

Requested read-out: GI50. Entry: C=C[C@H]1CN2CCc3c([nH]c4c([C@@H]5CCCN5C)c(O)ccc34)[C@@H]2C[C@@H]1C[C@H]1c2[nH]c3ccccc3c2CCN1C
1.5 µM (inactive)

GET /values?readout=GI50&item= Nc1nc(Cl)c(C=O)c(NCC2(CO)CC(CCc3ccccc3)C2)n1 (stereo not given)
12.1 µM (inactive)

# query: GI50 of entry CC1=NN(c2cccc(Cl)c2)C2(C1)C(Cl)C(=O)N2c1nc2ccccc2s1 (stereo not given)
25.6 µM (inactive)

What measured GI50 goes with O=C1c2ccccc2C(=O)N1CC1(C(=O)O)NCCS1(=O)=O (stereo not given) ?
> 100 µM (inactive)

# GI50 lookup, item O=CCOCc1cc2c(cc1Br)OCO2
> 100 µM (inactive)

What measured GI50 goes with O=C(CC1=Nc2nnc(-c3nnc4n3C(=O)C(CC(=O)C3CC3)=N4)n2C1=O)C1CC1 ?
> 100 µM (inactive)

For the compound O=C(O)CCCc1nc2c(n1-c1ccccc1)C(=O)c1ccccc1C2=O , what GI50 is on record?
> 100 µM (inactive)

Quick one: GI50 for c1ccc2c(c1)nnn2CNc1ccc(N2CCOCC2)cc1 ?
> 100 µM (inactive)
